Test system: CHO-K1 cells
protocol-summary: in vitro
Type: cell-based
measurement-parameters: Chinese hamster, 24 h
Would you mind telling me the reported IC50 of each entry?

INPUT: Bench note: what IC50 did CN(C)CCCNC(=O)c1cccc(-c2ccc(O)c3c2C[C@H]2C[C@H]4[C@H](N(C)C)C(O)=C(C(N)=O)C(=O)[C@@]4(O)C(O)=C2C3=O)c1 [J] show?
OUTPUT: > 40.3 µM

INPUT: Bench note: what IC50 did CN(C)CCCNC(=O)c1cccc(-c2ccc(O)c3c2C[C@H]2C[C@H]4[C@H](N(C)C)C(O)=C(C(N)=O)C(=O)[C@@]4(O)C(O)=C2C3=O)c1 [Q] show?
OUTPUT: > 137 µM

====

System: gram negative bacteria
protocol-summary: In vitro anti-bacterial activity assay (broth dilution MIC), gram negative bacteria
Assay type: cell-based, E. coli
measurement-parameters: Escherichia coli, ATCC25922, 18 h, E. coli ATCC 25922; read-out: Median MIC's G− E. coli ATCC 25922
quantity-kind: MIC (µg/mL)
Return type: number; implicit unit µg/mL.

INPUT: What measured MIC is associated with "CN(C)CCNC(=O)c1ccc(O)c2c1C[C@H]1C[C@H]3[C@H](N(C)C)C(O)=C(C(N)=O)C(=O)[C@@]3(O)C(O)=C1C2=O" on gram negative bacteria?
OUTPUT: 64

INPUT: What measured MIC is associated with "CN(C)[C@@H]1C(O)=C(C(N)=O)C(=O)[C@@]2(O)C(O)=C3C(=O)c4c(O)ccc(-c5cnc6ccccc6c5)c4C[C@H]3C[C@@H]12" on gram negative bacteria?
OUTPUT: 4

INPUT: What measured MIC is associated with "CN(C)CCN(C)Cc1ccc(-c2ccc(O)c3c2C[C@H]2C[C@H]4[C@H](N(C)C)C(O)=C(C(N)=O)C(=O)[C@@]4(O)C(O)=C2C3=O)o1" on gram negative bacteria?
OUTPUT: 4

====

Tested on: gram negative bacteria
protocol-summary: In vitro anti-bacterial activity assay (broth dilution MIC), gram negative bacteria
Type: cell-based, E. coli
measurement-parameters: Escherichia coli, ATCC25922, 18 h, E. coli ATCC 25922; read-out: Median MIC's G− E. coli ATCC 25922
quantity-kind: MIC (µg/mL)
Return type: number; implicit unit µg/mL.

INPUT: Bench note: what MIC did "CN(C)[C@@H]1C(O)=C(C(N)=O)C(=O)[C@@]2(O)C(O)=C3C(=O)c4c(O)ccc(C(=O)CNCc5ccccn5)c4C[C@H]3C[C@@H]12" show?
OUTPUT: 64

INPUT: Bench note: what MIC did "CN(C)CC(=O)N1CC=C(c2ccc(O)c3c2C[C@H]2C[C@H]4[C@H](N(C)C)C(O)=C(C(N)=O)C(=O)[C@@]4(O)C(O)=C2C3=O)CC1" show?
OUTPUT: 16

INPUT: Bench note: what MIC did "CN(C)CCCCNCc1ccc(O)c2c1C[C@H]1C[C@H]3[C@H](N(C)C)C(O)=C(C(N)=O)C(=O)[C@@]3(O)C(O)=C1C2=O" show?
OUTPUT: 32

INPUT: Bench note: what MIC did "CN(C)[C@@H]1C(O)=C(C(N)=O)C(=O)[C@@]2(O)C(O)=C3C(=O)c4c(O)ccc(-c5cccc(CCCN)c5)c4C[C@H]3C[C@@H]12" show?
OUTPUT: 32

INPUT: Bench note: what MIC did "CC1CCN(CC(=O)c2ccc(O)c3c2C[C@H]2C[C@H]4[C@H](N(C)C)C(O)=C(C(N)=O)C(=O)[C@@]4(O)C(O)=C2C3=O)CC1" show?
OUTPUT: 0.06

INPUT: Bench note: what MIC did "CN(C)[C@@H]1C(O)=C(C(N)=O)C(=O)[C@@]2(O)C(O)=C3C(=O)c4c(O)ccc(C(=O)Cn5ccnc5)c4C[C@H]3C[C@@H]12" show?
OUTPUT: 64

====

Tested on: gram negative bacteria
protocol-summary: In vitro anti-bacterial activity assay (broth dilution MIC), gram negative bacteria
Type: cell-based, E. coli
measurement-parameters: Escherichia coli, 18 h, E. coli MG 1655; read-out: Median MIC's G− E. coli MG 1655
Lab note - cut at 60 µg/mL for MIC: label 1 if strictly below, label 0 if not.

INPUT: Hello, is MIC of the following molecule strictly smaller than 60 µg/mL? "CN(C)[C@@H]1C(O)=C(C(N)=O)C(=O)[C@@]2(O)C(O)=C3C(=O)c4c(O)ccc(C(=O)CNCC(N)=O)c4C[C@H]3C[C@@H]12"
OUTPUT: label 0

INPUT: Hello, is MIC of the following molecule strictly smaller than 60 µg/mL? "CCCCNC(=O)c1cccc(-c2ccc(O)c3c2C[C@H]2C[C@H]4[C@H](N(C)C)C(O)=C(C(N)=O)C(=O)[C@@]4(O)C(O)=C2C3=O)c1"
OUTPUT: label 0

INPUT: Hello, is MIC of the following molecule strictly smaller than 60 µg/mL? "COC(=O)C1CCN(Cc2ccc(O)c3c2C[C@H]2C[C@H]4[C@H](N(C)C)C(O)=C(C(N)=O)C(=O)[C@@]4(O)C(O)=C2C3=O)CC1"
OUTPUT: label 1

INPUT: Hello, is MIC of the following molecule strictly smaller than 60 µg/mL? "CC(=O)NCCC(=O)c1ccc(O)c2c1C[C@H]1C[C@H]3[C@H](N(C)C)C(O)=C(C(N)=O)C(=O)[C@@]3(O)C(O)=C1C2=O"
OUTPUT: label 0

INPUT: Hello, is MIC of the following molecule strictly smaller than 60 µg/mL? "CN(C)CCNCc1cccc(-c2ccc(O)c3c2C[C@H]2C[C@H]4[C@H](N(C)C)C(O)=C(C(N)=O)C(=O)[C@@]4(O)C(O)=C2C3=O)c1"
OUTPUT: label 1

INPUT: Hello, is MIC of the following molecule strictly smaller than 60 µg/mL? "CN(C)[C@@H]1C(O)=C(C(N)=O)C(=O)[C@@]2(O)C(O)=C3C(=O)c4c(O)ccc(-c5cccc(C(=O)NCc6ccco6)c5)c4C[C@H]3C[C@@H]12"
OUTPUT: label 0

INPUT: Hello, is MIC of the following molecule strictly smaller than 60 µg/mL? "CN(C)CCCCNCc1cccc(-c2ccc(O)c3c2C[C@H]2C[C@H]4[C@H](N(C)C)C(O)=C(C(N)=O)C(=O)[C@@]4(O)C(O)=C2C3=O)c1"
OUTPUT: label 0

INPUT: Hello, is MIC of the following molecule strictly smaller than 60 µg/mL? "CN(C)[C@@H]1C(O)=C(C(N)=O)C(=O)[C@@]2(O)C(O)=C3C(=O)c4c(O)ccc(-c5cccc(C(=O)NCC[N+](C)(C)C)c5)c4C[C@H]3C[C@@H]12"
OUTPUT: label 0

INPUT: Hello, is MIC of the following molecule strictly smaller than 60 µg/mL? "CN(C)CCCNC(=O)c1cccc(-c2ccc(O)c3c2C[C@H]2C[C@H]4[C@H](N(C)C)C(O)=C(C(N)=O)C(=O)[C@@]4(O)C(O)=C2C3=O)c1"
OUTPUT: label 1

INPUT: Hello, is MIC of the following molecule strictly smaller than 60 µg/mL? "COc1ccc(-c2ccc(O)c3c2C[C@H]2C[C@H]4[C@H](N(C)C)C(O)=C(C(N)=O)C(=O)[C@@]4(O)C(O)=C2C3=O)cc1CNCC(N)=O"
OUTPUT: label 1

INPUT: Hello, is MIC of the following molecule strictly smaller than 60 µg/mL? "CN(C)CCNC(=O)c1cccc(-c2ccc(O)c3c2C[C@H]2C[C@H]4CC(O)=C(C(N)=O)C(=O)[C@@]4(O)C(O)=C2C3=O)c1"
OUTPUT: label 0

====

protocol-summary: in vitro
Type: cell-based
measurement-parameters: Chinese hamster, Cytotox. CHO-K1
Would you mind telling me the reported IC50 at 24 h of each entry?

INPUT: Bench note: what IC50 at 24 h did CN(C)[C@@H]1C(O)=C(C(N)=O)C(=O)[C@@]2(O)C(O)=C3C(=O)c4c(O)ccc(-c5cccc(CCCO)c5)c4C[C@H]3C[C@@H]12 [CM] show?
OUTPUT: 14.1 µM

INPUT: Bench note: what IC50 at 24 h did CN(C)CCCCNCc1ccc(O)c2c1C[C@H]1C[C@H]3[C@H](N(C)C)C(O)=C(C(N)=O)C(=O)[C@@]3(O)C(O)=C1C2=O [CN] show?
OUTPUT: > 138 µM

INPUT: Bench note: what IC50 at 24 h did CC(=O)Nc1cccc(-c2ccc(O)c3c2C[C@H]2C[C@H]4[C@H](N(C)C)C(O)=C(C(N)=O)C(=O)[C@@]4(O)C(O)=C2C3=O)c1 [AO] show?
OUTPUT: > 16.3 µM

INPUT: Bench note: what IC50 at 24 h did CC(C)N1CCN(CC(=O)c2ccc(O)c3c2C[C@H]2C[C@H]4[C@H](N(C)C)C(O)=C(C(N)=O)C(=O)[C@@]4(O)C(O)=C2C3=O)CC1 [BX] show?
OUTPUT: > 130 µM

INPUT: Bench note: what IC50 at 24 h did CN(C)CCCNC(=O)c1ccc(-c2ccc(O)c3c2C[C@H]2C[C@H]4[C@H](N(C)C)C(O)=C(C(N)=O)C(=O)[C@@]4(O)C(O)=C2C3=O)o1 [DH] show?
OUTPUT: > 200 µM

INPUT: Bench note: what IC50 at 24 h did CN(Cc1cccnc1)Cc1cccc(-c2ccc(O)c3c2C[C@H]2C[C@H]4[C@H](N(C)C)C(O)=C(C(N)=O)C(=O)[C@@]4(O)C(O)=C2C3=O)c1 [BJ] show?
OUTPUT: > 25.1 µM

Hey, just so you know, these numbers are from patent US20100022483A1.
